Data provenance: ChEMBL document CHEMBL3352411

Biological target: Prostaglandin D2 receptor 2 (Homo sapiens)
Sequence (Q9Y5Y4 whole entry): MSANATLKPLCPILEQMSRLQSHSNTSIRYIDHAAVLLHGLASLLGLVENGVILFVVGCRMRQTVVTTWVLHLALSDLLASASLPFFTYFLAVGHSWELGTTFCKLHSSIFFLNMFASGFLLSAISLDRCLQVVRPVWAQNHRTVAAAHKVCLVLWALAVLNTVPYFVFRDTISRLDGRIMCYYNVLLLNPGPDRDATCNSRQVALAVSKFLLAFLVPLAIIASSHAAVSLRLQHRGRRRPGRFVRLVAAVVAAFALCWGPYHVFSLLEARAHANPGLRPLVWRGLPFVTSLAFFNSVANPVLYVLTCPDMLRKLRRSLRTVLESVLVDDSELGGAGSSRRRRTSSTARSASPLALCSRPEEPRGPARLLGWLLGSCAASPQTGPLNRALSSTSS
Test: Antagonist activity at CRTh2 receptor (unknown origin) overexpressed in CHOK1 cell membranes assessed as inhibition of [35S]-GTPgammaS binding measured after 2 hrs by liquid scintillation counting analysis
MEASURED METRIC: log10 of IC50 (log10 of the value in nM)
Remember, log10 of IC50, in nM.

Below: 5 molecules and their reported log10 of IC50.
CCN(Cc1cc(C(F)(F)F)ccc1-n1cc(CC(=O)O)c2ccc(C)cc21)C(=O)C1CC1 :: 2.08
CCN(Cc1cc(C(F)(F)F)ccc1-n1cc(CC(=O)O)c2ccc(C)nc21)C(=O)C1CCC1 :: 1.00
CCN(Cc1cc(F)ccc1-c1cn(CC(=O)O)c2ccc(C(F)(F)F)cc12)C(=O)C1CC1 :: 1.15
CCN(Cc1cc(C(F)(F)F)ccc1-c1nn(CC(=O)O)c2ccc(C)cc12)C(=O)C1CC1 :: 0.95
CCN(Cc1cc(C(F)(F)F)ccc1-n1cc(CC(=O)O)c2ccc(C(F)(F)F)nc21)C(=O)C1CC1 :: 1.73

Hi there! I need log10 of IC50 for each item below, if you can.
1. CCN(Cc1cc(C(F)(F)F)ccc1-n1cc(CC(=O)O)c2ccc(C)nc21)C(=O)COC
2. CCN(Cc1cc(C(F)(F)F)ccc1-n1cc(CC(=O)O)c2ccc(C)nc21)C(=O)c1ccccn1
3. CCN(Cc1cc(C(F)(F)F)ccc1-n1cc(CC(=O)O)c2ccc(C(F)F)nc21)C(=O)C1CC1
4. CCN(Cc1cc(F)ccc1-n1cc(CC(=O)O)c2ccc(C)nc21)C(=O)C1CC1

Given back:
1: 0.95; 2: 1.99; 3: 1.04; 4: 0.67
